# pIC50 annotations
Tgt: TRPC5 channel (Homo sapiens (Human))
Sequence (Q9UL62 whole entry): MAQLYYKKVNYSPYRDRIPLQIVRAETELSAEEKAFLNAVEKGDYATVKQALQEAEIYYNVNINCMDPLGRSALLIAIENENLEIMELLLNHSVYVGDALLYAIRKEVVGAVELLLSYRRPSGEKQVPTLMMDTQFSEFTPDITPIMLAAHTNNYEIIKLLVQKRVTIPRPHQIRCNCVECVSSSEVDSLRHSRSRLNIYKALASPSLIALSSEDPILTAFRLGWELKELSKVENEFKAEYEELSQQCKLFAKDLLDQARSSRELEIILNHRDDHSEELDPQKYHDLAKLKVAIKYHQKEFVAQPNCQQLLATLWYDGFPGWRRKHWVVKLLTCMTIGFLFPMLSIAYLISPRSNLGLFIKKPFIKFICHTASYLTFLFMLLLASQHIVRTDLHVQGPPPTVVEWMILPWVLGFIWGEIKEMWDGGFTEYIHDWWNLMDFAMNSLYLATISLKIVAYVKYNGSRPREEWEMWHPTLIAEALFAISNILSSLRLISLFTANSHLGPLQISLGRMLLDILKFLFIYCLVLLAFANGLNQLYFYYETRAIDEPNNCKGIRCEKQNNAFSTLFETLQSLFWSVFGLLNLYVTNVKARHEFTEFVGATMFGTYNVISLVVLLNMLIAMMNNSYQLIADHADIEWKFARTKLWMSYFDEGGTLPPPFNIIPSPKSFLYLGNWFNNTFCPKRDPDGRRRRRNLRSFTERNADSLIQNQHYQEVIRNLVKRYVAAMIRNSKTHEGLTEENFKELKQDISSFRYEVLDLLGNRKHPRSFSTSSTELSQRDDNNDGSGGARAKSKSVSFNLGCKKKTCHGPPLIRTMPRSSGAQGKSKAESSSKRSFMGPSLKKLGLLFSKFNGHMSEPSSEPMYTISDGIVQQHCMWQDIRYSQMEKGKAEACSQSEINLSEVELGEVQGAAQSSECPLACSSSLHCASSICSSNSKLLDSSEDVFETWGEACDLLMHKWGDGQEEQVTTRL
Method: High throughput screening assay: intracellular Ca2+ rise, Fluo4 cell-based fluorescence
Run Conditions: HEK293/TREx cells inducibly expressing TRPC5, high-Ca2+ Ringer, 14 mM Ca2+ final, triplicate, 0.027-20 μM
pIC50: −log10 of the molar value.

Cc1c(-c2ccccc2OC(F)(F)F)sc2c1c(=O)n(CCCO)c(=O)n2C    > 7.68
Cc1c(-c2ccc(F)c(C(F)(F)F)c2)sc2c1c(=O)n(CCCO)c(=O)n2C    > 7.57

Next item in the queue.
Qu. Given the compound Cc1c(-c2ccc(Cl)c(Cl)c2)sc2c1c(=O)n(CCCO)c(=O)n2C , what is its reported pIC50?
Ans. > 7.57
